- System: rat corneal epithelial wound
- Assay Info: Corneal Wound Healing Assay (2)
- Assay type: in vivo, SD rats
- Condition Parameters: topical 3 and 6 mg/ml every 6 hour; observed at 0 and 18 hours
Recorded Endpoint: inhibitory effect on normal healing of rat corneal epithelial wound

Compound: Cc1ccc(Nc2nccc(N(C)c3ccc4c(C)n(C)nc4c3)n2)cc1S(N)(=O)=O
Assay Result: showed inhibitory effect
--
Compound: Cc1cc(-c2cc(OC(=O)c3ccccc3)ccc2Cl)cc2nnc(Nc3ccc(OCCN4CCCC4)cc3)nc12
Assay Result: showed inhibitory effect
--
Compound: CNC1(C)C2CCC(C2)C1(C)C (stereo not shown)
Assay Result: showed inhibitory effect
